assay: Pharmacokinetics in beagles, multiple-dose regimen (once per day for 7 days) of TRQI or TRQC, plasma LC-MS/MS; assay type: in vivo; details: female, beagle, dog, po, 0.09 g/kg, TRQC 0.09 g/kg for 7 days, beagle No. 6, read-out: AUC0–24 h
property: AUC(0-t)

Which AUC(0-t) is reported for this compound? "C[C@H](CCC(=O)O)[C@H]1CC[C@H]2[C@@H]3[C@@H](O)C[C@@H]4C[C@H](O)CC[C@]4(C)[C@H]3CC[C@]12C" 17600 ng·h/mL

Record: "C[C@H](CCC(=O)O)[C@H]1CC[C@H]2[C@@H]3[C@H](O)C[C@@H]4C[C@H](O)CC[C@]4(C)[C@H]3CC[C@]12C" 760 ng·h/mL

Record: "O=C(O)[C@H]1O[C@@H](Oc2cc3oc(-c4ccccc4)cc(=O)c3c(O)c2O)[C@H](O)[C@@H](O)[C@@H]1O" 32.5 ng·h/mL

Record: "O=C(/C=C/c1ccc(O)c(O)c1)O[C@@H]1C[C@](O)(C(=O)O)C[C@@H](O)[C@H]1O" 26.9 ng·h/mL
